Reference source: the nanobody polyreactivity screen of Harvey et al. (2022)

- Experimental Protocol: yeast display, Sf9 membrane polyspecificity reagent, FACS + sequencing; frameworks hold sequencing errors
Metric Name: polyreactivity (PSR sort gate)

- Seq String: "QVQLVESGGGLVQAGGSLRLSCAASGSTFSTNAMGWYRQAPGQERELVAAISSSSGRTYYADSVKGRFTISRDNAKNTVYLQMNSLKPEDTAVYYCAAANQGYRSGRKGVQRFDYWGQGTQVTVSS"
  Result: "high polyreactivity"
- Seq String: "QVQLVESGGGLVQAGGSLRLSCAATGRIFNYYAMGWYRQAPGKERELVAAISNGGSTYYADSVKGRFTISRDNAKNTVYLQMNSLKPEDTAVYYCNAAARNGYARRVYYWGQGTQVTVSS"
  Result: "high polyreactivity"
- Seq String: "QVQLVESGGGLVQAGGSLRLSCAASGRIFPTNAMGWYRQAPGKERELVAAIPVSGGSTYYADSVKGRFTISRDNAKKTVYLQMNSLKPEDTAVYYCAVDDRASVGSRLDHWGQGTQVTVSS"
  Result: "low polyreactivity"
- Seq String: "QVQLVESGGGLVQAGGSLRLSCAASGGTFVTYTMAWYRQAPGKEREFVAAISRSGGSTYYADSVKGRFTISRDNAKNTVYLQMNSLKPEDTAVYYCATRGRYYGPGYDYWGQGTQVTVSS"
  Result: "high polyreactivity"
- Seq String: "QVQLVESGGGLVQAGGSLRLSCAASGRTFRYYDMGRYRQAPGKERELVAAISSSGDRTYYADSVKGRFTISRDNAKNTVYLQMNSLKPEDTAVYYCAADRGARGDYWGQGTQVTVSS"
  Result: "high polyreactivity"
- Seq String: "QVQLVESGGGLVQAGGSLRLSCAASGFTIYFKAMGWYRQAPGKERELVAAISFSGGGTYYADSVKGRFTISRDNAKNTFYLQMNSLKPEDTAVYYCAADWYDWVSTYDYWGQGTQVTVSS"
  Result: "low polyreactivity"
- Seq String: "QVQLVESGVGLVQAGGSLRLSCAASGSIFEVYAMGWYRQAPGKEREFVATLSGSGGSTYYADSVKGRFTISRDNAKNTVYLQMNSLKPEDTAVYYCAASIAWYSSFVITCYYWGQGTQVTVSS"
  Result: "low polyreactivity"
- Seq String: "QVQLVESGGGLVQAGGSLRLSCAASGRIFVYNAMGWYRQAPGKERELVAAITRGGSTYYADSVKGRFTISRDNAKNTVYLQMNSLNPEDTAVYYCASDYQRNDFRWYDYWGQGTQVTVSS"
  Result: "low polyreactivity"
- Seq String: "QVQLVESGGGLVQAGGSLRLSCAASGSIFNTYAMGWYRQAPGKEREFVASISRSGGSTRYADSVKGRFTISRDNAKNTVYLQMNSLKPEDTAVYYCAARVPRGHVTYDYWGQGTQVTVSS"
  Result: "high polyreactivity"
- Seq String: "QVQLVESGGGLVQAGGSLLLSCAASGRIFDLNAMGWYRQAPGKERELVAAITNTGSTNYADSVKGRFTISRDNAKNTVYLQMNSLKPEDTAVYYCARTYWLRYYGYRDDEYDYWGQGTQVTVSS"
  Result: "low polyreactivity"
- Seq String: "QVQLVESGGGLVQAGGSLRLSCAASGGTFSLYAMGWYRQAPGKEREFVAAISWRGTSTYYADSVKGRFTISRDNAKNTVYLQMNSLKPEDTAVYYCAARAWHEYGSWGQGTQVTVSS"
  Result: "high polyreactivity"

###

- Experimental Protocol: yeast display, Sf9 membrane polyspecificity reagent, FACS + sequencing; frameworks hold sequencing errors
Metric Name: polyreactivity (PSR sort gate)

- Seq String: "QVQLVESGGGLVQAGGSLRLSCAASGRIFVHNAMGWYRQAPRKERELVAAISWSGGSTYYADSVKGRFTISRDNAKNTVYLQMNSLKPEDTAVYYCNALDPLYFRYDYWGQGTQVTVSS"
  Result: "low polyreactivity"
- Seq String: "QVQLVESVGGLVQAGGSLRLSCAASGSTFWTNAMGLYRQAPGKERELVATISKTTGRTYYADSVKGRFTISRDNAKNTVYLQMNSLKPEDTAVYYCAAEPYSWDTWVDYDYWGQGTQVTVSS"
  Result: "low polyreactivity"
- Seq String: "HVQLVESGGGLVQAGGSLRLSCAASGGTFGRYARGWYRQAPGKERELVAAISSGGSTNYADSVKGRFTISRDNAKYTVYLLMNSLKPEDTAVYYCAADGPSGVRQYDYWGQGTQVTVSS"
  Result: "low polyreactivity"
- Seq String: "QVQLVESGGGLDQAGGSLRLSCAASGYTYGTYDMRWYRQAPGKERELVAAISIGGSTNYADSVKGRFTISRDNAKNTVYLQMNSLKPEDTAVYYCAAEVNVGTLLLSVIVEDGDYWGQGTQVTVSS"
  Result: "low polyreactivity"
- Seq String: "QVQLVESGGGLVQAGGSLRLSCAASGFIFDTYAMGWYRQAPGKERDLVAVISSGGSTYYADSVKGRVTISRDNAKNTVYLQMNSLKPEDTAVYYCAADSGYLGIYGDDYSWGQGTQVSVSS"
  Result: "low polyreactivity"
- Seq String: "QVQRVESGGGLVQAGVSLRLSCASSGITFDVNALGWYRQAPGKERELVAAITAGGNTYYADSVKGRFTISRDKAKTTVYLQMNSLKPEETAVYYCAAVSTSLYWAGYDYWGQGTQVTVSS"
  Result: "low polyreactivity"
- Seq String: "QVQLVESGGGLVQAGGSLRLSCAASGRIFGPYAMGWYRQAPGKERELVAAISGRGSSTYYADSVKGRFTISRDNAKNTVYLQMNSLKPEDTAVYYCAKYPTYSYDYWGQGTQVTVSS"
  Result: "high polyreactivity"
- Seq String: "QVQLVESGGGLVQAGGSRSLSCAASGSIFLVNAMGWYRQAPGKERELVAAINSGGSTYYADSVKGRFTISRDNAKNTVYLQMNSLKPEDTAVYYCAADFWLKVWQDTDYDYDYWGQGTQVTVSS"
  Result: "low polyreactivity"
- Seq String: "QVQLVESGGGLVQAGGSLRLSCAASGSIFEVYAMGWYRQAPGKERELVAAINYTGGSTYYADSVKGRFTISRDNAKNTVYLQMNSLKPEDTAVYYCAVPRGVASLQKVEFGYWGQGTQVTVSS"
  Result: "low polyreactivity"
- Seq String: "QVQLVESGGGLVQAGGSLRLSCAASGIIFFDYAMGWYRQAPGKERELVAAISSGGGNTYYADSVKGRFTISRDNAKNTVYLQMNSLNPEDTAVDYCAAEPYIYGEQGAYDYWGQGTQVTVSS"
  Result: "low polyreactivity"
- Seq String: "QVQLVESGGGLVQAGGSLRLSCAASGRIFYNYAMGWYRQAPGKERELVASISNSGGSTYYADSVKGRFTISRDNAKNTVYLQMNSLKPEDTAVYYCARRYYYYTTYRYDYWGQGTQVSVSS"
  Result: "high polyreactivity"
- Seq String: "QVQLVESGGGLVQAGGSLRLSCAASGRTFSIYAMGLYRQAPGKERELVAAISNGGRTKYADSVKGRFTISRDNAKNTVYLQMNSLKPEDTAVYYCAAETWYVAYGYWGQGTQVTVSS"
  Result: "high polyreactivity"
- Seq String: "QVQLVESGGGLVQAGGSLRLSCAASGSIFNRYTMGWYRPAHGKQRELVAAISRGGITYYADSVKGRFTISRDNAMNTVYLQMNSLKPEDSAVYYCAADGFTRWGRYDYWGQGTQVTVSS"
  Result: "high polyreactivity"
- Seq String: "QVQLVESGGGLVQAGGSLRLSCAASGSIFDWNSMGWYRQAPGKERELVATISWDGGSTYYADSVKGRFTISLDNAKNTVYLQMNSLKPEDTAVYYCATVFTGKPAYYARTKYDYWGQGTQVTVSS"
  Result: "low polyreactivity"
- Seq String: "QVQLVESGGGLVQAGGSLRLSCAASRRTFKSSAMGWYRPEPGKERELVAAISRSGGITYYADSVKGRFTISRDNAKNTVYLQMNSLKPEDTAVYYCAAVGYQYRHRRFYYWGQGTQVTVSS"
  Result: "high polyreactivity"
- Seq String: "QVQLVESGGGLVQAGGTLRLSCAASGSTFSVNAMGWYRQAPGKERELVASITTSGGSTNYADSVKGRFTISRDNAKNTVYLQMNSLKPEDTAVYYCNDDTPGSSPSDYNYWGQGTQVTVSS"
  Result: "low polyreactivity"
- Seq String: "QDQLVESGGGLVQAGGSLRLSCAASGSNFRFNAMGWDTQAPGKEREFDAANSRSGGRTYYADSVKGRFRISRDNAKNTVYFQMNCLKPEDTAVFYCNAVWRFPIGRSAPRYDYWGQGTQVTVSS"
  Result: "high polyreactivity"
- Seq String: "QVQLVESGGGLVQAGGSLRLSCAASGGIFPYYAMGLYRQAPGKERELVADISSGGSTYYEDSVKGRFTISRDNAKNTVYLQMNSLKPEDTAVYYCAAEDTLAGSVARFGEYDYWGQGTQVTVSS"
  Result: "low polyreactivity"
- Seq String: "QVQLVESGGALVQAGGILRLSCAASGRTFQYNVMGWYRQAPGKEREFVAAITWNGGSTYYADSVKGRFTISRDKAKNTVYLQMISLKPEDPAVYYCAARWTKKLEYGYWGQGTQVTVSS"
  Result: "low polyreactivity"
- Seq String: "QVQLVESGGGLVQAGGSLRLSCAASGNIFQGNAMGWYRQAPGKERELVAAITSDGSTYADSVKGRFTISRDNAKNTVYLQLNSLKPEDTAVYYCNADGITSLPVPALDYWGQGTQATVSS"
  Result: "low polyreactivity"
- Seq String: "QVQLVESGGGLVQAGGSLRLSCADSGRIFWTNAMVWYRQAPGKERELVAAISYNGASTFYADSVKGRFTISRDNAKNTVSLQMNSLKPEDTAVYYCNAYSSRYRYNYWGQGTQVTVSS"
  Result: "high polyreactivity"
